- Test target: Olfr398 (Mus musculus)
- Sequence (Q8VFY0 1-314): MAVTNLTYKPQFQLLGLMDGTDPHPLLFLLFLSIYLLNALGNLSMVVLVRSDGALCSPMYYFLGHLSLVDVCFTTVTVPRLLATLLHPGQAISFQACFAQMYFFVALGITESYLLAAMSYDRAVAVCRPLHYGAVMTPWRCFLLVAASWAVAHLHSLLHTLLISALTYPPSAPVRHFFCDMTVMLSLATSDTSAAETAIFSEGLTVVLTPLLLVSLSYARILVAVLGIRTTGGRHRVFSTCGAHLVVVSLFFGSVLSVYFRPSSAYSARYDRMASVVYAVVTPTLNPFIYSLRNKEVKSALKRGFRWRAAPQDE
- Protocol text: 1-octen-3-ol concentration-dependent activation of Olfr398: OR-dependent cAMP accumulation in a cell-based assay (functional dose-response)
- Measurement context: agonist, mouse Olfr398 (SEQ ID NO: 65), N-terminal FLAG/Rho/Lucy tags, HEK 293T cells, Gαolf, FIG. 6
pEC50: −log10 of the molar value.
Result type: pEC50

{"Compound": "C=CC(O)CCCCC (stereo not shown)", "Result type": "pEC50", "Reported result": 4.94}

====

- Test target: OR51E1 olfactory receptor (Homo sapiens, UniProt Q8TCB6, K299R)
- Construct: expressed in transfected cells
- Sequence (Q8TCB6 2-318 K299R limits assumed): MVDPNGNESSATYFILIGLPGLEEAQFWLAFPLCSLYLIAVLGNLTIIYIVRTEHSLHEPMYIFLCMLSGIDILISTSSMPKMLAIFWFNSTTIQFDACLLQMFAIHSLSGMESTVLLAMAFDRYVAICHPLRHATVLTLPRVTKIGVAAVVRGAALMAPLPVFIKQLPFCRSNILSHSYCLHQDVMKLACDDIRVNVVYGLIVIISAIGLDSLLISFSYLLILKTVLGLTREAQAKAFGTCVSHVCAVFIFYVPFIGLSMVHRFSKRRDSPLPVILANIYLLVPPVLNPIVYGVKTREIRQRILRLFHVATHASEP
- Protocol text: Butyric acid olfactory receptor antagonist cell-based inhibitory dose-response assay
- Measurement context: Table 4; butyric acid at single activating concentration (EC94)
pIC50: −log10 of the molar value.
Items are presented alongside their recorded pIC50.
Result type: pIC50

{"Compound": "C=C(C)CC1(CC(=C)C)CCCC(C)(C)C1O (stereo not drawn)", "Reported result": 3.90}
{"Compound": "CC(=O)OC1C(C)(C)CCCC12C(C)C=CCC2C (stereo not drawn)", "Reported result": 4.14}
{"Compound": "C=CCC1(OC)C(C)CCCC1C (stereo not drawn)", "Reported result": 4.00}
{"Compound": "CC1=C(C)CC2(CCC(C)(C)C2=O)C1", "Reported result": 3.70}
{"Compound": "CC1=CC(C)C2(CCCC(C)(C)C2O)C1 (stereo not drawn)", "Reported result": 4.09}
{"Compound": "COC1C(C)(C)CCC12CCCC2 (stereo not drawn) [4-methoxy-3,3-dimethylspiro[4.4]nonane]", "Reported result": 3.47}
{"Compound": "C=C(C)CC1(CC(=C)C)CCC(C)(C)C1O (stereo not drawn)", "Reported result": 4.45}
{"Compound": "CC(=O)OC(C1C(C)CC(C)CC1C)C(C)(C)C (stereo not drawn)", "Reported result": 3.62}
{"Compound": "CC1CC=CCC12CCCC(C)(C)C2OC=O (stereo not drawn)", "Reported result": 4.35}
{"Compound": "C=C(C)CC1(CC(=C)C)CCCC(C)(C)C1=O", "Reported result": 4.33}
{"Compound": "CC(=O)OC1C(C)(C)CCC12CC=CC2 (stereo not drawn)", "Reported result": 3.31}
{"Compound": "COC1C(C)(C)CCCC12CC=CC2 (stereo not drawn)", "Reported result": 3.92}
